tested on: HaCaT; test: In vitro UVA/UVB photoprotection test on HaCaT; assay type: cell-based, human; conditions: Table 17: UVA-induced damage (10 J/cm2), 7.8 μmol/l
measurement.label: Protection (%)
Numbers only, in %.

Completed entries (count: 2):
compound	readout.value
Clc1nc(NCC2CCCO2)c2ncn(C3CCCO3)c2n1 (centres unmarked)	25.0
Clc1nc(NCc2ccco2)c2ncn(C3CCCO3)c2n1 (centres unmarked)	56.9

Provide reported Protection (%) for each item, in the same order as listed.
1. c1csc(CNc2ncnc3c2ncn3C2CCCO2)c1 (centres unmarked)
2. O=C(/C=C/c1ccc(O)c(O)c1)O[C@H](Cc1ccc(O)c(O)c1)C(=O)O [RA, rosmarinic acid, reference compound]
3. OCc1ccc(CNc2ncnc3c2ncn3C2CCCO2)o1 (centres unmarked)

1. 70.3
2. 42.3
3. 34.3
